run-description: chemical genetic growth profiling, strain panel (AID 1159580);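 also: tested at 20 µM; growth read once vehicle control cultures reached saturation at 30 °C; 1 = growth at the plate median or of vehicle wells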
applied-conditions: S. cerevisiae deletion strains, growth OD, locus YLR027C, strain aat2, stronger effect = lower value
About 2,000 (36%) of roughly 5,500 compounds were called active. Inconclusive results (about 18%) are left out. Some of the results follow.
Listing: normalized growth of selected molecules
reported-metric: normalized growth

> print(dat)
                                   molecule    reported.metric  recorded.measurement
1  COc1ccccc1OCC(O)CN1CCN(CC(=O)Nc2c(C)cccc2C)CC1 (stereo not drawn)  normalized growth                     1
2  N[C@@H](CCC(=O)N[C@@H](CCSC(CC(=O)O)C(=O)O)C(=O)NCC(=O)O)C(=O)O (stereo partly drawn)  normalized growth                 0.996
3  COc1cc(C)c2c(c1C=O)Oc1c(c(C)c(O)c3c1C(O)OC3=O)OC2=O (stereo not drawn)  normalized growth                     1
4             CCOc1ccc2c(c1)C(C)=CC(C)(C)N2  normalized growth                  1.01
5                    CCCc1cc(OC)c2c(c1)OCO2  normalized growth                 0.984
6           COc1ccc(/C=C/c2cc(O)cc(O)c2)cc1  normalized growth                     1
7                 O=c1cccc2n1C[C@H]1CNCC2C1  normalized growth                     1
8  CN(C)CCCO[C@H]1[C@@H](C(O)CO)OC2OC(C)(C)O[C@@H]21 (stereo partly drawn)  normalized growth                 0.997

====

Listing: normalized growth of selected compounds
run-description: chemical genetic growth profiling, strain panel (AID 1159580)
applied-conditions: S. cerevisiae deletion strains, growth OD, locus YPL204W, strain HRR25, stronger effect = lower value
Screen size: about 5,500 compounds; about 2,000 (36%) were called active. About 18% were inconclusive and are not listed. Some of the results follow.
reported-metric: normalized growth

> print(dat)
                                   compound  recorded.measurement
1     COc1ccccc1NC(=O)Nc1nn(C)c2cccc(OC)c12      0.719 (inactive)
2  COc1cc(N=Cc2cc(Cl)cc(Cl)c2OS(=O)(=O)c2ccc(C)cc2)c(OC)cc1Cl      0.906 (inactive)
3  COc1cc(C(=O)Oc2c(Cl)cc(Cl)cc2C=Nc2cccc(C(F)(F)F)c2)cc(OC)c1OC        0.562 (active)
4  CCc1cc2c(cc1-c1csc(C/C(N)=N\O)n1)C(C)(C)CCC2(C)C      0.759 (inactive)
5  CSc1cccc(N2C(=O)CC(c3c(Cl)cccc3Cl)CC2=O)c1      0.981 (inactive)
6  COc1ccccc1C(C[N+](=O)[O-])c1c(N)n(C)c(=O)n(C)c1=O (centres undefined)        0.603 (active)
7  CSc1c(C#N)c(-c2ccc(Cl)cc2)nn1C(=O)c1ccccc1Cl      0.942 (inactive)
8  Nc1cc(-c2ccc(OC(F)(F)F)cc2)nn1-c1ccc(Cl)c(Cl)c1        0.285 (active)
9      O=C(Nc1ccc(Cl)cc1Cl)c1cnccc1C(F)(F)F      0.976 (inactive)

====

run-description: chemical genetic growth profiling, strain panel (AID 1159580);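 also: tested at 20 µM; growth read once vehicle control cultures reached saturation at 30 °C; 1 = growth at the plate median or of vehicle wells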
applied-conditions: S. cerevisiae deletion strains, growth OD, locus YJL115W, strain asf1
Out of some 5,500 compounds screened, about 2,000 (36%) were called active. Roughly 18% stayed inconclusive and do not appear here. No stated cut-off is given here; in the data, active means normalized growth mostly below about 0.91 (no sharp cut-off); inconclusive means no clear call, values can overlap the other calls; inactive means mostly above about 0.92. This is one part of the list.
Labels: active, inactive

molecule	assigned-class
O=C(O)P(=O)(O)O	inactive
O=C(NC(=O)c1c(F)cccc1F)Nc1cc(Cl)c(OC(F)(F)C(F)C(F)(F)F)cc1Cl (centres undefined)	inactive
O=C(O)c1cc(=O)c(O)c2c(O)c(O)ccc2c1	inactive
CCCN(CCC)C(=O)C(CCC(=O)O)NC(=O)c1ccccc1 (centres undefined)	inactive
O=C(O)c1cc(O)c(O)c(O)c1	inactive
OC/C=C/c1ccc(O)c(O)c1	inactive
O=C(O)c1cc(=O)c2c(OCC(O)COc3cccc4oc(C(=O)O)cc(=O)c34)cccc2o1	inactive
COc1ccc(CN(CCN(C)C)c2ncccn2)cc1	inactive
C[C@@H]1CC2C3CCC4=CC(=O)C=C[C@]4(C)[C@@]3(F)[C@@H](O)C[C@]2(C)[C@@]1(O)C(=O)COP(=O)(O)O (some centres undefined)	inactive
COc1cc(/C=C/C(=O)O)ccc1O	inactive
CC(=O)O[C@H]1C[C@@H](OC(C)=O)C(C)(C)C2C[C@@H](OC(C)=O)[C@]3(C)C(CC[C@@]4(C)[C@H](c5ccoc5)C(=O)[C@H]5O[C@]543)[C@]21C (some centres undefined)	inactive
O=C(/C=C/c1ccc(O)c(O)c1)O[C@@H]1C[C@](O)(C(=O)O)C[C@@H](O)[C@H]1O	inactive
Nc1nc(N)c2nc(CNc3ccc(C(=O)NC(CCC(=O)O)C(=O)O)cc3)cnc2n1 (centres undefined)	inactive
CCCNC(C)C(=O)Nc1ccccc1C (centres undefined)	inactive
O=C(O)CCC(=O)c1ccc(-c2ccccc2)cc1	inactive
COc1ccc(/C=C/C(=O)c2cc(O)ccc2O)cc1	active
CN(C)CCCO[C@H]1[C@@H](C(O)CO)OC2OC(C)(C)O[C@@H]21 (some centres undefined)	inactive
NCc1ccc(S(N)(=O)=O)cc1	inactive
CC1(C)O[C@@H]2[C@@H](CO[C@@]3(COS(N)(=O)=O)OC(C)(C)O[C@@H]23)O1	inactive

====

run-description: chemical genetic growth profiling, strain panel (AID 1159580);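 also: tested at 20 µM; growth read once vehicle control cultures reached saturation at 30 °C; 1 = growth at the plate median or of vehicle wells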
applied-conditions: S. cerevisiae deletion strains, growth OD, locus YOR316C, strain cot1, stronger effect = lower value
Screen size: about 5,500 compounds; about 2,000 (36%) were called active. Roughly 18% stayed inconclusive and do not appear here. The list shows a part of the results.
Listing: normalized growth of selected molecules
reported-metric: normalized growth

> print(dat)
                                   molecule  recorded.measurement
1                   O=C(O)c1cc(O)c(O)c(O)c1       1.02 (inactive)
2  Cc1cccc(CN2CCN(C(c3ccccc3)c3ccc(Cl)cc3)CC2)c1 (stereo unspecified)       0.98 (inactive)
3                        CCCSP(=O)(OCC)SCCC       0.99 (inactive)
4  CC12CCCC(O)(C1)C1CC(C)(C)C1CC2 (stereo unspecified)       1.01 (inactive)
5  COc1ccc(C[C@H](N)C(=O)N[C@@H]2[C@@H](CO)OC(n3cnc4c(N(C)C)ncnc43)[C@@H]2O)cc1 (stereo partly specified)       1.02 (inactive)
6  CC1(C)CC2C1CCC1(C)OC2(C)CCC1O (stereo unspecified)       1.02 (inactive)

====

Listing: normalized growth of selected compounds
run-description: chemical genetic growth profiling, strain panel (AID 1159580);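 also: tested at 20 µM; growth read once vehicle control cultures reached saturation at 30 °C; 1 = growth at the plate median or of vehicle wells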
applied-conditions: S. cerevisiae deletion strains, growth OD, locus YER110C, stronger effect = lower value
Among all 5,500 compounds or so, about 2,000 (36%) were called active. Another 18% or so got no clear call; they are omitted. This is one part of the list.

compound	normalized growth
COc1cc2c(cc1O)CC1c3c(cc(O)c(OC)c3-2)CCN1C (configuration not stated)	0.997 (inactive)
CC(=O)N[C@@H]1[C@@H](C(O)[C@H](O)CO)O[C@](O)(C(=O)O)C[C@@H]1O (some centres not stated)	1 (inactive)
CC1=CC(=O)CC(C)(C)C1(O)/C=C/C(C)=C\C(=O)O (configuration not stated)	0.96 (inactive)
CC(=O)OC/C=C(C)/C=C/C=C(C)/C=C/C1=C(C)CCCC1(C)C	0.992 (inactive)
C=CCc1cc(OC)c2c(c1OC)OCO2	0.929 (inactive)
CN1CCc2cccc3c2C1Cc1ccc(O)c(O)c1-3 (configuration not stated)	0.985 (inactive)
CC[C@]12CCCN3CCc4c(n(c5ccccc45)C(=O)C1)[C@@H]32	0.975 (inactive)
CC1=C(/C=C/C(C)=C/C=C/C(C)=C/C=C/C=C(C)/C=C/C=C(C)/C=C/C2=C(C)CCCC2(C)C)C(C)(C)CCC1	1 (inactive)
CC[C@@H](C(=O)O)[C@@H]1O[C@@H]([C@@H](C)[C@H](O)[C@H](C)C(=O)[C@H](CC)[C@H]2O[C@]3(C=C[C@@H](O)[C@]4(CC[C@@](C)(C5CC[C@](O)(CC)[C@H](C)O5)O4)O3)[C@H](C)C[C@@H]2C)[C@@H](C)C[C@H]1C (some centres not stated)	0.861 (active)
CCOC(=O)CCCCCCCCCCCCC1C=CCC1 (configuration not stated)	0.0827 (active)
O=C(O)CCC(=O)c1ccc(-c2ccccc2)cc1	0.973 (inactive)
NC(=O)c1cnccn1	0.995 (inactive)
COc1ccccc1-c1cc(=O)c2c(OC)cccc2o1	0.977 (inactive)
COc1ccc(C[C@H](N)C(=O)N[C@@H]2[C@@H](CO)OC(n3cnc4c(N(C)C)ncnc43)[C@@H]2O)cc1 (some centres not stated)	1.02 (inactive)
COc1cc(C(=O)O)c(O)c2c1OCO2	1 (inactive)
CCOP(=S)(OCC)Oc1ccc2c(C)c(Cl)c(=O)oc2c1	0.977 (inactive)
O=C1O[C@@H](CO)[C@H](O)[C@@H](O)[C@@H]1O	1.01 (inactive)
COc1cc2c3cc1Oc1cc(ccc1O)OC1c4c(cc(OC)c(O)c4Oc4ccc(cc4)CC3N(C)CC2)CCN1C (configuration not stated)	0.966 (inactive)
Cc1ccc(C(C)C)cc2c(C)ccc1-2	1.04 (inactive)
C[C@@]12C(=O)OC(=O)[C@]1(C)C1CCC2O1	0.902 (inactive)
CCCSP(=O)(OCC)SCCC	0.983 (inactive)
O=C(O)CCCCCCCCCCCCC1C=CCC1 (configuration not stated)	1.01 (inactive)
